# System: OVCAR-3
# assay: NCI tumour cell line growth inhibition, 48 h
Calls of active or inactive are those of the source. Rule as the data show it: active = GI50 up to about 1.1 µM and inactive = higher.

| compound | GI50 |
| --- | --- |
| CC1OC(OC2C[C@](O)(C(=O)CF)Cc3c(O)c4c(c(O)c32)C(=O)c2ccccc2C4=O)CC(N)C1O (some centres not stated) | 0.233 µM (active) |
| NC(=O)NO [HYDROXYUREA] | 1240 µM (inactive) |
| O=C1NC(Cc2c[nH]c3ccccc23)C(=O)N2C(c3ccccc3)c3[nH]c4ccccc4c3C[C@@H]12 (some centres not stated) | 15.5 µM (inactive) |
| Cc1ccc(/C=C/C(=O)c2sc(C(N)=S)nc2C)cc1 | > 100 µM (inactive) |
| C/C(=N\Nc1ccc2ccccc2n1)c1ccccc1O | 2.13 µM (inactive) |
| C[C@@]12C(=O)OC(=O)[C@]1(C)[C@H]1CC[C@@H]2O1 [CANTHARIDIN] | 0.759 µM (active) |
| O=C1CC(O)c2cscc21 (configuration not stated) | > 100 µM (inactive) |
| [N-]=[N+]=Nc1ccc2c(c1)Sc1ccccc1N2CCCCN1CCN(Cc2ccc(C(=O)c3ccc(CSCC(N)C(=O)O)cc3)cc2)CC1 (configuration not stated) | 26.9 µM (inactive) |
| Cn1cc2ccccc2c1-c1nc(F)nc(Nc2ccc(N)cc2)n1 | 20.8 µM (inactive) |
| O=C1NI(C#Cc2ccccc2)c2ccccc21 | > 100 µM (inactive) |
| COc1ccc2c(C)cc(N/N=C/c3ccc(OC)c4ccccc34)nc2c1 | 2.96 µM (inactive) |
| COc1ccc(CNc2nc3c(NC(C)=O)cc(C(F)(F)F)cc3nc2-c2ccccc2)cc1OC | 93.1 µM (inactive) |
| O=c1c2ncn(C3CCCO3)c2n(-c2ccccc2)c(=S)n1-c1ccccc1 (configuration not stated) | > 100 µM (inactive) |
| CCOC(=O)c1nc2ccccc2nc1Nc1ccc(F)cc1 | > 72.4 µM (inactive) |
| CN1Cc2ccccc2C2(COc3ccccc3C2=O)C1 (configuration not stated) | 77.8 µM (inactive) |
| CCN(C)c1nc(N(C)CC)c2nc(N(C)CC)nc(N(C)CC)c2n1 | > 100 µM (inactive) |
| C=CC(=O)C#Cc1cnc(OC)nc1OC | 18.2 µM (inactive) |

====

This document collects GI50 values reported for HCT-15.
assay.metric: GI50 (µM)

| compound | assay.metric | observed.value |
| --- | --- | --- |
| CC(NC(CC12CC3CC(CC(C3)C1)C2)C(N)=O)c1ccccc1 (stereo not given) | GI50 | 31.7 |
| O=C(CCC(=O)Nc1ccc(Cl)c(Cl)c1)CC(=O)c1ccc2ccccc2c1 | GI50 | 39.8 |
| Cc1cccc(Nc2nc3ccccc3nc2NS(=O)(=O)c2ccc(N)cc2)c1 | GI50 | 34.1 |
| COc1ccc(Cc2nc3cc(C(F)(F)F)ccc3n2CCCN(C)C)cc1 | GI50 | 20 |
| COC(=O)C1(NC(=O)C(Cc2ccccc2)N(C(=O)OC(C)(C)C)C(=O)OC(C)(C)C)CCCC1 (stereo not given) | GI50 | 66.4 |

====

# Tested on: CCRF-CEM
# assay: NCI tumour cell line growth inhibition, 48 h
Activity calls are given as the source filed them. Cut-off read from the data, not from the text of the source: active = GI50 up to about 1.1 µM and inactive = higher.
Outcome codes: YES (active), NO (inactive)

| compound | label |
| --- | --- |
| C/C(=N\NC(=O)C[N+](C)(C)C)c1sc(-c2cccnc2)nc1C | NO |
| O=C(/C=C/c1ccc(OCCCOc2ccc(/C=C/C(=O)c3ccc(Cl)cc3)cc2)cc1)c1ccc(Cl)cc1 | NO |
| COC(=O)[C@]1(c2cc3ccccc3[nH]2)CC2CN(CC(=O)N(C)OC)C1CC2(OC)OC (stereo partly drawn) | NO |
| [O-][n+]1c2cc3c(cc2[n+]([O-])c2c(O)cccc21)CN(CCN1CCOCC1)C3 | NO |
| COc1ccc2c(=O)oc3c(OC)cc(CCN(C)C)c4c(=O)oc1c2c34 | NO |
| FC1=C2C3CCC(C3)C2C1(F)F (stereo not drawn) | NO |
| CC1(C)OCN(c2ccc(S(N)(=O)=O)cc2)Cn2c1nc1ccccc12 | NO |
| C/N=C1\OC2=C3C(c4ccccc4)(O/C(=N/C)N(C)C3(c3ccccc3)OC2=O)N1C (stereo not drawn) | NO |
| COc1cccc2c1C(=O)c1c(O)c3c(c(O)c1C2=O)C[C@](O)(C(=O)CO)CC3OC1CC(N)C(OC2CCCCO2)C(C)O1 (stereo partly drawn) | YES |
| N#C[BH2-][n+]1cn(C2CC(OP(=O)(O)OCC3OC(n4ccc(N)nc4=O)CC3O)C(CO)O2)c2nc(N)[nH]c(=O)c21 (stereo not drawn) | NO |
| CN1Cc2ccccc2C2(COc3ccccc3C2=O)C1 (stereo not drawn) | NO |
| COc1ccc2c(c1)CCCN2S(=O)(=O)c1ccccc1[N+](=O)[O-] | NO |
| COC1/C=C/C(C)C(C(C)C(OC)C(C)CCC(=O)C(C)C(CCC(=O)O)OC)OC(=O)/C=C/C=C(\C)CC(OC)CC2=CC(=O)O[C@@H](C(C)C(OC)CC(OC)/C=C/C(C)C(OC)C1)[C@H]2O (stereo partly drawn) | YES |
| C[C@]12CCc3nonc3C1CC[C@@H]1C2CC[C@]2(C)C(=O)CCC12 (stereo partly drawn) | NO |
| O=C(c1ccccc1)C(c1ccccc1)C1(O)C(=O)Nc2ccc([N+](=O)[O-])cc21 (stereo not drawn) | NO |
| O=C1c2c(Br)sc(Br)c2[C@H]2NC(=S)O[C@@H]12 | NO |
| CN/N=C(\C(=O)Nc1ccc([N+](=O)[O-])cc1[N+](=O)[O-])C1NC(=O)NC1=O (stereo not drawn) | NO |
| COc1ccc2c(c1)C(=O)C(=O)c1cc(O)c(OC)c(OC)c1-2 | YES |

====

Reported GI50 by item:
# System: SK-OV-3
# assay: NCI tumour cell line growth inhibition, 48 h
Activity calls are given as the source filed them. Cut-off read from the data, not from the text of the source: active = GI50 up to about 1.1 µM and inactive = higher.

| molecule | GI50 |
| --- | --- |
| SC1=NNC2(C(Cl)=N1)c1ccccc1-c1ccccc12 | > 10 µM (inactive) |
| CC1(C)SC2C(NC(=O)Cc3ccccc3)C(=O)N2C1C(=O)O (stereo unspecified) | > 100 µM (inactive) |
| COC(=O)c1ccccc1C#CC#Cc1ccccc1C(=O)OC | > 10 µM (inactive) |
| COc1cccc(C2ON=C(c3ccccc3)N2C23CC4CC(CC(C4)C2)C3)c1 (stereo unspecified) | > 10 µM (inactive) |
| O=C(Nc1cc(Cl)c(Cl)cc1Cl)C(=O)C1C(=O)NC(=S)NC1=O | > 100 µM (inactive) |
| COC1=CCC2=C(CCN(C(=O)C3CCC3)C2Cc2ccc(OC)c(O)c2)C1 (stereo unspecified) | 20.5 µM (inactive) |
| COc1ccc(C2SCC(=O)N2c2ccc(-n3c(-c4ccccc4)nc4ccccc4c3=O)cc2)cc1OC (stereo unspecified) | > 100 µM (inactive) |
| COC(=O)C1(NC(=O)C(Cc2ccccc2)N(C(=O)OC(C)(C)C)C(=O)OC(C)(C)C)CCCC1 (stereo unspecified) | > 100 µM (inactive) |
| COc1ccc2c(c1OC)C(=O)c1cnccc1C2=O | > 100 µM (inactive) |
| NC1=NC(c2ccccc2)CC(c2cc(Cl)cc(Br)c2O)=N1 (stereo unspecified) | 24.7 µM (inactive) |
| Cc1cc(C)c2c(=O)n(CC(O)CN3CCN(c4ncccn4)CC3)sc2n1 (stereo unspecified) | 18.7 µM (inactive) |
| CC(C)=C/C=C1/CS(=O)(=O)C=C1C | > 100 µM (inactive) |
| CC(C#N)(c1ccccc1)N(CCc1ccccc1)C(=O)Oc1ccccc1 (stereo unspecified) | > 100 µM (inactive) |
| Cc1ccccc1/N=C/N(C)C | > 100 µM (inactive) |
| C[C@@H](NC(=O)[C@@H]1C[C@]1(C)CO)c1cccc2ccccc12 | > 100 µM (inactive) |
| [O-][n+]1c2cc3c(cc2[n+]([O-])c2c(O)cccc21)CN(CCN1CCOCC1)C3 | 17.1 µM (inactive) |
| CCCCCCCCCc1cc(O)c(O)cc1CCCCCCCCC | > 10 µM (inactive) |
| CCOC(=O)CO/N=C1/C(=C2/C(=O)Nc3ccccc32)Nc2ccccc21 | 13.6 µM (inactive) |
| O=C(O)Cc1cccc2c(=O)cc(-c3ccccc3)oc12 | 242 µM (inactive) |
| CCOC1c2cc(OC)c(OC)cc2-c2ccc3ccccc3c2N1C (stereo unspecified) | 22 µM (inactive) |
| CC1=NN(C(=O)CC(=O)Nc2ccc(Cl)cc2)C(=O)C1/N=N\c1ccc(S(=O)(=O)c2ccc(/N=N/C3C(=O)N(C(=O)CC(=O)Nc4ccc(Cl)cc4)N=C3C)cc2)cc1 (stereo unspecified) | > 100 µM (inactive) |
